target.under.test: recombinant 15-PGDH protein (Homo sapiens (Human))
Sequence (P15428 whole entry): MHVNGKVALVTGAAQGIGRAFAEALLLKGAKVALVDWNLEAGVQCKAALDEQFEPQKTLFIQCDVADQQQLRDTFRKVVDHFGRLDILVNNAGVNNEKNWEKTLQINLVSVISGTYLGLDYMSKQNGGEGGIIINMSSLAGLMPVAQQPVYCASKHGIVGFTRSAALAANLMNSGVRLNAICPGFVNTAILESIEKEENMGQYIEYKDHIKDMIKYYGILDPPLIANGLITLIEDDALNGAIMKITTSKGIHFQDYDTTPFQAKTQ
test.summary: Inhibition of enzymatic activity of recombinant 15-PGDH in vitro
Assay type: biochemical
experimental.setup: read-out: Enzyme inhibition % ([…]), recombinant 15-PGDH, […] compound; read-out: Enzyme inhibition % (7.5 μM)
result.type: inhibition at […] (%)

>>> recorded_measurement("COc1ccc(OC)c(N(CC(=O)Nc2cccnc2Cl)S(=O)(=O)c2ccccc2)c1 [SW202973]")
13.6
>>> recorded_measurement("COc1ccc(OC)c(N(CC(=O)Nc2cc(C)cnc2Cl)S(=O)(=O)c2ccccc2)c1 [SW202972]")
-2.94
>>> recorded_measurement("COc1ccc(S(=O)(=O)N(CC(=O)N2CCCCCC2)c2cc(OC)ccc2OC)cc1 [SW207998]")
14.4

A = COc1ccc(S(=O)(=O)N(CC(=O)Nc2cccnc2)c2cc(C(F)(F)F)ccc2C(F)(F)F)cc1 [SW208008]
B = CNC(=O)CN(c1cc(OC)ccc1OC)S(=O)(=O)c1ccccc1 [SW203682]
Problem: Could you determine which record has the numerically smaller inhibition at […]? Candidates: A and B Return value: the label identifying the chosen record.
Solution: B

* * *

target.under.test: recombinant 15-PGDH protein (Homo sapiens (Human))
test.summary: Inhibition of enzymatic activity of recombinant 15-PGDH in vitro
Assay type: biochemical
experimental.setup: read-out: Enzyme inhibition % ([…]), recombinant 15-PGDH, […] compound; read-out: Enzyme inhibition % (7.5 μM)
result.type: inhibition at […] (%)

Check out these entries, answers already filled in.
>>> recorded_measurement("COc1ccc(OC)c(N(CC(=O)N2CCCc3ccccc32)S(=O)(=O)c2ccccc2)c1 [SW208006]")
24.8
>>> recorded_measurement("COc1ccc(S(=O)(=O)N(CC(=O)Nc2cccnc2)c2cc(OC)ccc2OC)cc1 [SW202940]")
63.3
>>> recorded_measurement("COc1ccc(OC)c(N(CC(=O)Nc2cccnc2)S(=O)(=O)c2cccc(C)c2)c1 [SW203684]")
64.7

I = COc1ccc(OC)c(N(CC(=O)Nc2cccnn2)S(=O)(=O)c2ccccc2)c1 [SW203680]
II = COc1ccc(S(=O)(=O)N(CC(=O)Nc2ccncc2)c2cc(OC)ccc2OC)cc1 [SW202989]
III = COc1ccc(OC)c(N(CC(=O)OC2CCCCC2)S(=O)(=O)c2ccccc2)c1 [SW202978]
Problem: Sort entries by inhibition at […] from minimum to maximum value. Please express your ranking as an ordered list of the labels.
Solution: III, I, II
(III: 3.12%, I: 62.1%, II: 89.9%)

* * *

target.under.test: recombinant 15-PGDH protein (Homo sapiens (Human))
test.summary: Inhibition of enzymatic activity of recombinant 15-PGDH in vitro;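 further: activity of recombinant human 15-PGDH assayed in vitro using PGE2 as the substrate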
Assay type: biochemical
experimental.setup: read-out: Enzyme inhibition % ([…]), recombinant 15-PGDH, […] compound; read-out: Enzyme inhibition % (2.5 μM)
result.type: inhibition at […] (%)

Check out these entries, answers already filled in.
>>> recorded_measurement("COc1ccc(OC)c(N(CC(=O)N2CCCc3ccccc32)S(=O)(=O)c2ccccc2)c1 [SW208006]")
15.7
>>> recorded_measurement("COc1ccc(OC)c(N(CC(=O)Nc2cccnc2)S(=O)(=O)c2ccccc2OC(F)(F)F)c1 [SW202954]")
6.02

I = COc1ccc(OC)c(N(CC(=O)Nc2cccnc2)S(=O)(=O)c2cccc(C)c2)c1 [SW203684]
II = COc1ccc(OC)c(N(CC(=O)Nc2ccncc2)S(=O)(=O)c2ccccc2)c1 [SW202938]
Problem: Select the item with the higher value of inhibition at […] from the options I and II listed. Return value: the label identifying the chosen record.
Solution: II

P = COc1ccc(OC)c(N(CC(=O)OC(C)C)S(=O)(=O)c2ccccc2)c1 [SW202971]
Q = COc1ccc(OC)c(N(CC(=O)N2CCOCC2)S(=O)(=O)c2ccccc2)c1 [SW125991]
R = COc1ccc(OC)c(N(CC(=O)Nc2cnccc2C)S(=O)(=O)c2ccccc2)c1 [SW202967]
S = COc1cccc(NC(=O)CN(c2cc(OC)ccc2OC)S(=O)(=O)c2ccccc2)c1 [SW202976]
Problem: Sort entries by inhibition at […] from minimum to maximum value. Please express your ranking as an ordered list of the labels.
Solution: R, P, S, Q

1 = COc1ccc(OC)c(N(CC(=O)N(C)c2cccnc2)S(=O)(=O)c2ccccc2)c1 [SW203686]
2 = COc1ccc(OC)c(N(CC(=O)Nc2cccnc2C)S(=O)(=O)c2ccccc2)c1 [SW202968]
3 = COc1ccc(OC)c(N(CC(=O)Nc2cccnc2)S(=O)(=O)c2ccc(C)cc2)c1 [SW202939]
4 = COc1ccc(OC)c(N(CC(=O)Nc2cccnc2)S(=O)(=O)c2c(C)cc(C)cc2C)c1 [SW202953]
Problem: Order field: inhibition at […] | Direction: descending (largest first) Please express your ranking as an ordered list of the labels.
Solution: 3, 1, 4, 2
(3: 53.5%, 1: 14.9%, 4: 8.81%, 2: -7.09%)
